target: human NaV 1.7 (Homo sapiens); test: E-VIPR optical membrane potential assay with electrical stimulation; details: sodium channel inhibition; read-out: Binned Activity Data (IC50)
pIC50: −log10 of the molar value.
readout-name: pIC50

Request: Entry under review: COc1cc(C(=O)N2CCC3(CC2)Oc2ccccc2-c2nn(C)cc23)ccc1C(C)(C)C [Compound 754] . Reported pIC50?
Response: < 5.30

Request: Entry under review: Cc1cc(C(=O)N2CCC3(CC2)Oc2cc(Cl)ccc2-n2cccc23)ccc1OC(C)C [Compound 737] . Reported pIC50?
Response: ≥ 5.70

Request: Entry under review: COc1cc(C)ccc1C(=O)N1CCC2(CC1)Oc1ccccc1-c1c2cnn1C [Compound 465] . Reported pIC50?
Response: ≥ 5.70

Request: Entry under review: CC(C)C(O)c1ccc(C(=O)N2CCC3(CC2)Oc2ccccc2-c2nn(C)cc23)cc1 (centres unmarked) [Compound 4] . Reported pIC50?
Response: ≥ 5.70

Request: Entry under review: Cc1cc(C(=O)N2CCC3(CC2)Oc2cc(Cl)ccc2-c2c3cnn2C)ccc1OC(C)C [Compound 370] . Reported pIC50?
Response: ≥ 5.70

Next:
Request: Entry under review: COc1cc(C(=O)N2CCC3(CC2)Oc2ccccc2-c2c3cnn2C)ccc1C1CC1 [Compound 442] . Reported pIC50?
Response: ≥ 5.70

Request: Entry under review: Cc1cccc(C(=O)N2CCC3(CC2)Oc2ccccc2-c2c3cnn2C)c1 [Compound 491] . Reported pIC50?
Response: < 5.30

Request: Entry under review: Cn1ncc2c1-c1ccccc1OC21CCN(C(=O)c2cccc3c2OC(F)(F)O3)CC1 [Compound 345] . Reported pIC50?
Response: ≥ 5.70

###

Below, each entry is listed with its recorded IC50.
molecular target: human NaV 1.7 (Homo sapiens, UniProt Q15858); experiment: E-VIPR optical membrane potential assay with electrical stimulation; conditions: sodium channel inhibition; read-out: Binned Activity Data (IC50)
Sequence (Q15858 whole entry): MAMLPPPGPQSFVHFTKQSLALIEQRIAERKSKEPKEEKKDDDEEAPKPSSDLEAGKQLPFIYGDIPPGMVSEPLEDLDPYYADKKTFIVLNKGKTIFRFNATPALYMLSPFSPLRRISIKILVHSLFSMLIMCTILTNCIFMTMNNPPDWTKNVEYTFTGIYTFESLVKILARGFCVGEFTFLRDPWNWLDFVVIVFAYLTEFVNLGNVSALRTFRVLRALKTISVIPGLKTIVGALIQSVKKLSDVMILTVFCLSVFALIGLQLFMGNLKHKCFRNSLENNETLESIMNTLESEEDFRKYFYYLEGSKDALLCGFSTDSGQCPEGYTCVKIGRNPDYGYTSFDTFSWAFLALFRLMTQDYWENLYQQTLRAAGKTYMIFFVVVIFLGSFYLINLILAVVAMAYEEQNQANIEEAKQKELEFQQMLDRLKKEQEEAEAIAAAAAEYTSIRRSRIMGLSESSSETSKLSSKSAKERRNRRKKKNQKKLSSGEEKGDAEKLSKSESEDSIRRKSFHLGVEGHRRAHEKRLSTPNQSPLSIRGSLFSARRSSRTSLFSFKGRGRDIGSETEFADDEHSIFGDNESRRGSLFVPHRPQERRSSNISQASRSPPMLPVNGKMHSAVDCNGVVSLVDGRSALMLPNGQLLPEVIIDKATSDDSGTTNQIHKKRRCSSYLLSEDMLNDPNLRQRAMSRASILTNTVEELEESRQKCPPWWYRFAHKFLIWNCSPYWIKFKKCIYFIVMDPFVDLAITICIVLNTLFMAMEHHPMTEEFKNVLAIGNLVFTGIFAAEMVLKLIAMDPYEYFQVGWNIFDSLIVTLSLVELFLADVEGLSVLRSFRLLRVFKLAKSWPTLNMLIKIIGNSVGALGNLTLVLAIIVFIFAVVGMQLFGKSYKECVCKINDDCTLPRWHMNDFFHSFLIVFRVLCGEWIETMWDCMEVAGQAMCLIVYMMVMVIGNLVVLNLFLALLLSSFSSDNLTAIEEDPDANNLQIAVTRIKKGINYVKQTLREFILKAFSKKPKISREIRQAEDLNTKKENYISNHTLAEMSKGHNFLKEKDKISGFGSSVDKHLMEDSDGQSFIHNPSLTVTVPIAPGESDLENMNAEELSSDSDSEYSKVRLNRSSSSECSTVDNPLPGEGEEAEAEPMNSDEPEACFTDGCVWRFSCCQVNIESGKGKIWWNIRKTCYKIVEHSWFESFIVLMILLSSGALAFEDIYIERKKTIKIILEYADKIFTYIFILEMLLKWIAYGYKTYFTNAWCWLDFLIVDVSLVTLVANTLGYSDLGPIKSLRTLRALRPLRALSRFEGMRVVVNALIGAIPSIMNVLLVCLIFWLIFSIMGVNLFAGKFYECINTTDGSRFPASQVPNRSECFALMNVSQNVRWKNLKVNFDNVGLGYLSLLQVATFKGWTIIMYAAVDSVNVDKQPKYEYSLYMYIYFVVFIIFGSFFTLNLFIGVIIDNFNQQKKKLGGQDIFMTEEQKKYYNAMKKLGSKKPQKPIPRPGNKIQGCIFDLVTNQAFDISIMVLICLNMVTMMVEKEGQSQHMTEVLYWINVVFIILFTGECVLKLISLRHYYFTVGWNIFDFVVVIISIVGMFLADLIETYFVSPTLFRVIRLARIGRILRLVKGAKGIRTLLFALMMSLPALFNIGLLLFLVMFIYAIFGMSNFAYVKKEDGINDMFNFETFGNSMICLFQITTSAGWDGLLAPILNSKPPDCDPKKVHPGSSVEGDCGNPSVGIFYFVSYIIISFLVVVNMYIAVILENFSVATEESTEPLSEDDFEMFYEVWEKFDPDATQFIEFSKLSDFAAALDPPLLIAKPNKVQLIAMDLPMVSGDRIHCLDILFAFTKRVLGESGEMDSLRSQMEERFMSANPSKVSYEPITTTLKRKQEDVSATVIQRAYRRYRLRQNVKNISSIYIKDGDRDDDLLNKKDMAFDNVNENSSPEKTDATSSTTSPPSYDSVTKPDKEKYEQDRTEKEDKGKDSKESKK

Example compounds with recorded IC50:
Request: Entry under review: COc1cc(C(=O)N2CCC3(CC2)Oc2ccccc2-n2cccc23)ccc1OCCCO [Compound 466] . Reported IC50?
Response: ≤ 2000 nM

Request: Entry under review: CS(=O)(=O)c1ccc2n1-c1ccccc1OC21CCN(C(=O)c2ccccc2OC(F)F)CC1 [Compound 195] . Reported IC50?
Response: ≤ 2000 nM

Request: Entry under review: Cn1ccc(C(=O)N2CCC3(CC2)Oc2ccccc2-n2cccc23)cc1=O [Compound 405] . Reported IC50?
Response: > 5000 nM

Request: Entry under review: COc1c(F)cccc1C(=O)N1CCC2(CC1)Oc1ccccc1-c1c2cnn1C(C)C [Compound 544] . Reported IC50?
Response: ≤ 2000 nM

Request: Entry under review: COc1c(F)cccc1C(=O)N1CCC2(CC1)Oc1cc(Cl)ccc1-n1c(C#N)ccc12 [Compound 665] . Reported IC50?
Response: ≤ 2000 nM

Next:
Request: Entry under review: CCc1ccc(C(=O)N2CCC3(CC2)Oc2ccccc2-c2sc(C)nc23)cc1OC [Compound 257] . Reported IC50?
Response: ≤ 2000 nM

Request: Entry under review: CCc1ccc(C(=O)N2CCC3(CC2)Oc2cc(Cl)ccc2-n2cccc23)cc1O [Compound 489] . Reported IC50?
Response: 2000 to 5000 nM

Request: Entry under review: Cc1[nH]c2c(C(=O)N3CCC4(CC3)Oc3ccccc3-c3c4cnn3C)cccc2c1C [Compound 765] . Reported IC50?
Response: ≤ 2000 nM
